Overview of reported fold increase over parent (IgG KD, comparative binding affinity) across a group of binders:
# tgt: T1, cynomolgus MCSP D3 (cynomolgus)
# T1 construct: domain: D3; also called Cyno MCSP; cynomolgus homologue
# test.summary: ratio of ProteOn IgG KD against parental M4-3/ML2 IgG
Number only, in fold; omit the unit.

1) M4-3(C1)/ML2 IgG (antibody, V domains shown, Human IgG1 format) VH: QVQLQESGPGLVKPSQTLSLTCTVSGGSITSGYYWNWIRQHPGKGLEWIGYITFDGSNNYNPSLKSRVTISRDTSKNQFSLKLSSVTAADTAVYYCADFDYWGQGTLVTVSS VL: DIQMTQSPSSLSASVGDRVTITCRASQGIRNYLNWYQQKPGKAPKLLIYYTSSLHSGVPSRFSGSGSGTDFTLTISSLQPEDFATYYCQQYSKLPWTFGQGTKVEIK: 2.5

Q: Entry M4-3/ML2(G3) IgG (antibody, V domains shown, Human IgG1 format) VH: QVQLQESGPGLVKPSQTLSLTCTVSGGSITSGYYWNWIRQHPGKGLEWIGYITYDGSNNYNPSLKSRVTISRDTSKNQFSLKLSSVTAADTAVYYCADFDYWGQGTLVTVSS VL: DIQMTQSPSSLSASVGDRVTITCRASQGIRNYLNWYQQKPGKAPKLLIYYTSSLHSGVPSRFSGSGSGTDYTLTISSLQPEDFATYYCQQYSALPWTFGQGTKVEIK : reported fold increase over parent (IgG KD, comparative binding affinity) = ?
Ans: 3.3

This collection of values is drawn from patent US20160130347A1.
